Reference for the values: ChEMBL document CHEMBL5365493

ASSAYED_SYSTEM: Dipeptidyl peptidase 2 (Homo sapiens, UniProt Q9UHL4)
ASSAY_NAME: Inhibition of DPP2 (unknown origin)
OBSERVABLE: IC50 (µM)
Return type: number; implicit unit µM.

Problem: What measured IC50 goes with N[C@H](C(=O)N1Cc2ccccc2C1)C1CCC(O)CC1 (some centres not stated) ?
Result: 3.1

###

ASSAYED_SYSTEM: Dipeptidyl peptidase 8 (Homo sapiens, UniProt Q6V1X1)
Sequence (Q6V1X1 whole entry): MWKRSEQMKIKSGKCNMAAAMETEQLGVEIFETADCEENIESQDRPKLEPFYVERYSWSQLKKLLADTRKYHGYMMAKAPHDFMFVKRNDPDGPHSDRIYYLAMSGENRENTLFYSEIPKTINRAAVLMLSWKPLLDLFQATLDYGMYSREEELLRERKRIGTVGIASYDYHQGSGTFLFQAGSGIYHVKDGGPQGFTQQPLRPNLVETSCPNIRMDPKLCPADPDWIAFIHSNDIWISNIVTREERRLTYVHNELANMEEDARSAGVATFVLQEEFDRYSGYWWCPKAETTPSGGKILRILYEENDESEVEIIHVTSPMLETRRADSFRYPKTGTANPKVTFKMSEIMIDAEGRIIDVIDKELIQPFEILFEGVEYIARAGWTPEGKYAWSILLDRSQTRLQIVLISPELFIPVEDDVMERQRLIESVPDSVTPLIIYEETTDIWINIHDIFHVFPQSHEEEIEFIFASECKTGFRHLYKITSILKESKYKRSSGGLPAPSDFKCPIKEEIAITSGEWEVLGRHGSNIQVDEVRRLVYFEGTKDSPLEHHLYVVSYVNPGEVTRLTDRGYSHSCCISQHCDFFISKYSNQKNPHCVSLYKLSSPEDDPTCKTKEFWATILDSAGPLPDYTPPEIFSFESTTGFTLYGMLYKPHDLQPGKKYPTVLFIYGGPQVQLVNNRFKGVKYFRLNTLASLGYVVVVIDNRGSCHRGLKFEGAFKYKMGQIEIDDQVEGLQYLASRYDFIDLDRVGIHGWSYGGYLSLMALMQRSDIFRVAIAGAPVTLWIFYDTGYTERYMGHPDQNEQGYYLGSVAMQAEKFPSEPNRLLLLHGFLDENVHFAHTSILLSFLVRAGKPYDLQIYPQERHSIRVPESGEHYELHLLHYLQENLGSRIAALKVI
ASSAY_NAME: Inhibition of N-terminal human recombinant DPP8 expressed in Sf9 insect cells using Ala-Pro-paranitroanilide as substrate incubated for 15 mins by […]
OBSERVABLE: IC50 (nM)

Below, 5 compounds whose answers are already recorded.
O=C(NC12CC3CC(CC(NCC(=O)N4Cc5ccccc5C4)(C3)C1)C2)OCC(Cl)(Cl)Cl = 11800
O=C(CNC12CC3CC(C1)CC(NC(=O)C14CC5CC(CC(C5)C1)C4)(C3)C2)N1Cc2ccccc2C1 = 6000
N#CCCCCNC12CC3CC(C1)CC(NCC(=O)N1Cc4ccccc4C1)(C3)C2 = 4600
O=C(NC12CC3CC(CC(NCC(=O)N4Cc5ccccc5C4)(C3)C1)C2)OCC1c2ccccc2-c2ccccc21 = 1000
NCCNC(=O)OC12CC3CC(CC(NCC(=O)N4Cc5ccccc5C4)(C3)C1)C2 = 170

I = O=C(CNC12CC3CC(C1)CC(NCC(=O)N1Cc4ccccc4C1)(C3)C2)N1Cc2ccccc2C1
II = CC(C)(C)OC(=O)NC12CC3CC(CC(NCC(=O)N4Cc5ccc(F)cc5C4)(C3)C1)C2
III = CC(C)(C)COC(=O)NC12CC3CC(CC(NCC(=O)N4Cc5ccccc5C4)(C3)C1)C2
IV = O=C(CNC12CC3CC(C1)CC(OC(=O)N1CCNCC1)(C3)C2)N1Cc2ccccc2C1
Problem: Rank entries according to their IC50, from the largest number down. Form entry: ranked labels (order as requested).
Result: III, IV, II, I

A = NC12CC3CC(C1)CC(NC(=O)OC14CC5CC(CC(NCC(=O)N6Cc7ccccc7C6)(C5)C1)C4)(C3)C2
B = CCCCNC(=O)OC12CC3CC(CC(NCC(=O)N4Cc5ccccc5C4)(C3)C1)C2
Problem: Could you determine which record has the numerically smaller IC50? Candidates: A and B Answer with the label corresponding to your selection.
Result: A
